- Tested on: 485368-065-R3-J5-PDC spheroids with HUVEC/MSC, viability;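 also: spheroids exposed to agents for seven days before readout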
- method: Anticancer human tumor 485368-065-R3-J5-PDC patient-derived pancreatic carcinoma cell line growth inhibition [RAS]
- recorded_conditions: second compound 0.00949 µM; first compound 3.16 µM; hits give low values
assay_readout: viability, T/C (%)
Use % as the unit, but write only the number.

// solved cases for viability, T/C follow
CCC(CC)c1cc(NC2CCC(N)C2)n2nccc2n1 (stereo not drawn) + CCn1c(-c2cccnc2C(C)OC)c2c3cc(ccc31)N1CCOC(CC(NC(=O)C(C(C)C)N(C)C(=O)C3(F)CCN(C(=O)C#CC(C)(C)N(C)C)CC3)C(=O)N3CCCC(N3)C(=O)OCC(C)(C)C2)C1 | 4.94
CC(C)NCC(C(=O)N1CCN(c2ncnc3c2C(C)CC3O)CC1)c1ccc(Cl)cc1 (stereo not drawn) + CCn1c(-c2cc(N3CCN(C)CC3)cnc2C(C)OC)c2c3cc(ccc31)-c1csc(n1)CC(NC(=O)C1CC1C)C(=O)N1CCCC(N1)C(=O)OCC(C)(C)C2 | 10.2
CC1(O)CCCC1n1c(=O)c(C(F)F)cc2cnc(NC3CCN(S(C)(=O)=O)CC3)nc21 (stereo not drawn) + CCn1c(-c2cccnc2C(C)OC)c2c3cc(ccc31)N1CCOC(CC(NC(=O)C(C(C)C)N(C)C(=O)C3(F)CCN(C(=O)C#CC(C)(C)N(C)C)CC3)C(=O)N3CCCC(N3)C(=O)OCC(C)(C)C2)C1 | 44.8

Ask | Report viability, T/C for CCC(CC)c1cc(NC2CCC(N)C2)n2nccc2n1 (stereo not drawn) + CCn1c(-c2cc(N3CCN(C)CC3)cnc2C(C)OC)c2c3cc(ccc31)-c1csc(n1)CC(NC(=O)C1CC1C)C(=O)N1CCCC(N1)C(=O)OCC(C)(C)C2 please.
Reply | 2.54

Ask | Report viability, T/C for CC1(O)CCCC1n1c(=O)c(C(F)F)cc2cnc(NC3CCN(S(C)(=O)=O)CC3)nc21 (stereo not drawn) + CCn1c(-c2cc(N3CCN(C)CC3)cnc2C(C)OC)c2c3cc(ccc31)-c1csc(n1)CC(NC(=O)C1CC1C)C(=O)N1CCCC(N1)C(=O)OCC(C)(C)C2 please.
Reply | 11

Ask | Report viability, T/C for CC(=O)OC12COC1CC(O)C1(C)C(=O)C(O)C3=C(C)C(OC(=O)C(O)C(NC(=O)OC(C)(C)C)c4ccccc4)CC(O)(C(OC(=O)c4ccccc4)C21)C3(C)C (stereo not drawn) + CCn1c(-c2cccnc2C(C)OC)c2c3cc(ccc31)N1CCOC(CC(NC(=O)C(C(C)C)N(C)C(=O)C3(F)CCN(C(=O)C#CC(C)(C)N(C)C)CC3)C(=O)N3CCCC(N3)C(=O)OCC(C)(C)C2)C1 please.
Reply | 21.1

Ask | Report viability, T/C for C[C@@H](NC(=O)c1ncnc(N)c1Cl)c1ncc(C(=O)Nc2cc(C(F)(F)F)c(Cl)cn2)s1 + CCn1c(-c2cc(N3CCN(C)CC3)cnc2C(C)OC)c2c3cc(ccc31)-c1csc(n1)CC(NC(=O)C1CC1C)C(=O)N1CCCC(N1)C(=O)OCC(C)(C)C2 please.
Reply | 18.9

Ask | Report viability, T/C for CC(Nc1ccc2c(c1)OCCn1cc(N3C(=O)OCC3C(F)F)nc1-2)C(N)=O (stereo not drawn) + CCn1c(-c2cccnc2C(C)OC)c2c3cc(ccc31)N1CCOC(CC(NC(=O)C(C(C)C)N(C)C(=O)C3(F)CCN(C(=O)C#CC(C)(C)N(C)C)CC3)C(=O)N3CCCC(N3)C(=O)OCC(C)(C)C2)C1 please.
Reply | 85.9
